Origin of values: patent US20070244048A1

Would you kindly list EC50 (FLIPR) for each of these binders?
system: human NMUR2 (human, UniProt Q9GZQ4 1-415)
Sequence (Q9GZQ4 whole entry): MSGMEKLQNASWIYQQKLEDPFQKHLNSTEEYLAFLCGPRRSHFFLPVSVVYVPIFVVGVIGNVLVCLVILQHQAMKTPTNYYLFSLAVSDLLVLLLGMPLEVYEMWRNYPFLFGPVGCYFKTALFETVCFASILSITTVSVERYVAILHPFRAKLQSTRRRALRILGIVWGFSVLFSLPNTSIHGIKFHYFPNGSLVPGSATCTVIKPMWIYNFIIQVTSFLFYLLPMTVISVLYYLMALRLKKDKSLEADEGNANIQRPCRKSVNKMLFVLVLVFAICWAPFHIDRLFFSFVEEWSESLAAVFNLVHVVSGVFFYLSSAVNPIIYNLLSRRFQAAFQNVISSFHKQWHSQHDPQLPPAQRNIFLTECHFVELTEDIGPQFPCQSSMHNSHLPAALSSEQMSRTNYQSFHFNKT
procedure-text: cell-based or functional assay
Non-standard residues stand in square brackets, D forms with d. *: point of attachment. (PEG)2 40 kDa = branched PEG of 40 kDa linked via the Cys side-chain thiol (code C2 = Cys(PEG)2 40 kDa); Succinimide(1-Et,3-yl) = CCN1C(=O)CC(*)C1=O; Palmitoyl = CCCCCCCCCCCCCCCC(=O)*

What the record says about Ac-C((PEG)2 40 kDa)FRVDEEFQSPFASQSRGYF[dA]WRPRN-NH2 [NMU14] : EC50 (FLIPR) is > 1000 nM

For reference, reported EC50 (FLIPR) for Ac-C((PEG)2 40 kDa)FQSPFASQSRGYFLFRPRN-NH2 [NMU20] stands at 13 nM

Record Palmitoyl-C(Succinimide(1-Et,3-yl))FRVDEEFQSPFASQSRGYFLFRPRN-NH2 [NMU24] . Reported EC50 (FLIPR): 1000 nM

Recorded EC50 (FLIPR) (binder Ac-C(Succinimide(1-Et,3-yl))GYFLFRPRN-NH2 (SMILES CCN1C(=O)CC(SC[C@H](NC(C)=O)C(=O)NCC(=O)N[C@@H](Cc2ccc(O)cc2)C(=O)N[C@@H](Cc2ccccc2)C(=O)N[C@@H](CC(C)C)C(=O)N[C@@H](Cc2ccccc2)C(=O)N[C@@H](CCCNC(=N)N)C(=O)N2CCC[C@H]2C(=O)N[C@@H](CCCNC(=N)N)C(=O)N[C@@H](CC(N)=O)C(N)=O)C1=O) [NMU6] ): 1.5 nM
